- assay.target: TLK2 (human)
- assay.protocol: KINOMEscan competition binding
- study.conditions: compound 10.0 µM
Listing: kinase still bound, per cent of control of selected compounds
A number alone suffices; assume %.

Solved entries (count: 4):
- given.smiles: "C=CC(=O)Nc1cc(-n2c(=O)ccc3cnc4ccc(-c5cn[nH]c5)cc4c32)ccc1C"
  kinase still bound, per cent of control / %: 100
- given.smiles: "COc1cc(N2CCN(C)CC2)ccc1Nc1ncc2c(n1)N(C)c1ccccc1C(=O)N2C"
  kinase still bound, per cent of control / %: 100
- given.smiles: "COc1cc(C(=O)N2CCC(N3CCN(C)CC3)CC2)ccc1Nc1ncc2c(n1)N(C)c1ccccc1C(=O)N2C"
  kinase still bound, per cent of control / %: 99
- given.smiles: "C[C@@H](Oc1cc(-c2cnn(C3CCNCC3)c2)cnc1N)c1c(Cl)ccc(F)c1Cl"
  kinase still bound, per cent of control / %: 100

Field: next compound
Q: Recorded kinase still bound, per cent of control of CNC(=O)c1cc(Oc2ccc(NC(=O)Nc3ccc(Cl)c(C(F)(F)F)c3)cc2)ccn1 , please.
Result: 91
